molecular target: proteins (Homo sapiens, UniProt P02768); assay: Protein binding, Brodersen technique; type: in vitro ADME
Sequence (P02768 25-609): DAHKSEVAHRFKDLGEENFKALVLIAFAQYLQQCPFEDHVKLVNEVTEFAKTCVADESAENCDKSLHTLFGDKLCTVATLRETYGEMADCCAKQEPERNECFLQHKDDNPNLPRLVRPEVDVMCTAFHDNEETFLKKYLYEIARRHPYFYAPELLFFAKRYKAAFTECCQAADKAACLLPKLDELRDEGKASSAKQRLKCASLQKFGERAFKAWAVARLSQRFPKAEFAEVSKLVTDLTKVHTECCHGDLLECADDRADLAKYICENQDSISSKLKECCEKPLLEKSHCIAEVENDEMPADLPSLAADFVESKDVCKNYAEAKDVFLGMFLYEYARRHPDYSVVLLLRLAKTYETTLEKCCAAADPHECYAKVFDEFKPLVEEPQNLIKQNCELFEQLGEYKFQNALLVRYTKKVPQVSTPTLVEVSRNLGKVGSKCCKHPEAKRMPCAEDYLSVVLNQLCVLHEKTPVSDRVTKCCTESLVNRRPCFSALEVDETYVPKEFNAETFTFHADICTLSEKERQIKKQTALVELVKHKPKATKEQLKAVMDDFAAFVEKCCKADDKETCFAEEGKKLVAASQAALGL
# pKd annotations
// pKd here means minus log10 of the molar concentration (mol/L)

INSERT INTO results (compound, value_kind, test_result) VALUES
  ('CNC(=O)c1c(I)c(C(=O)NCC(=O)Nc2c(I)c(C(=O)O)c(I)c(C(=O)NCCO)c2I)c(I)c(N(C)C(C)=O)c1I [Methylglucamine ioxaglate]', 'pKd', 2.09);

input: For O=C(CCCCC(=O)Nc1c(I)cc(I)c(C(=O)O)c1I)Nc1c(I)cc(I)c(C(=O)O)c1I [Methylglucamine adipiodone] , what is its reported pKd?
output: 4.11

The reported numbers originate from patent US4474747A.
